Target: HLA class I molecule A02.01
Test: pMHC-I dissociation half-life, 125I-b2m
Settings: remark: other sources report otherwise
MEASURED_ENDPOINT: Stability (T1/2 (h))

// worked examples, Stability (T1/2 (h)) included
binder=FELLSTPPL measured_endpoint="Stability (T1/2 (h))" result_value=0
binder=FLQEQYHEA measured_endpoint="Stability (T1/2 (h))" result_value=9.5
binder=YMFLKAESKI measured_endpoint="Stability (T1/2 (h))" result_value=0.6
binder=VLHECNSLYI measured_endpoint="Stability (T1/2 (h))" result_value=5.1
binder=LSLMPAHWSI measured_endpoint="Stability (T1/2 (h))" result_value=0.4
binder=VMAGLGSPYV measured_endpoint="Stability (T1/2 (h))" result_value=2.9

1. FQNGKMALSA
2. SQIMSLWGL
3. SLMPAHWSI
4. YVMAYVMAGV
5. SLGNHLCPL
Problem: Provide the items ranked by increasing Stability (T1/2 (h)). Quick reminder: the answer is the labels in the order asked.
Solution: 1, 2, 5, 3, 4
(1: 0 h, 2: 1 h, 5: 3.5 h, 3: 5 h, 4: 20.9 h)

a. FLLALWECSL
b. YVMAYVMAG
c. YLGNHMNIA
Problem: Please list these binders in decreasing order of Stability (T1/2 (h)). Quick reminder: the answer is the labels in the order asked.
Solution: a, b, c
(a: 10.8 h, b: 2.5 h, c: 0.6 h)

Each recorded value in this set is attributed to patent US20220282217A1.
